Assay Overview: Inhibitory activity against RNA polymerase was determined
Parameters: species or system Escherichia coli
Measured Quantity: IC50 (µg/mL)
Answer with a number only, understood to be in µg/mL.

Molecule: COC1/C=C/OC2(C)Oc3c(C)c(O)c4c(O)c(c(N5CCN(Cc6c(C)cc(C)cc6C)CC5)c(O)c4c3C2=O)NC(=O)C(C)CCCC(C)C(O)C(C)C(O)C(C)C(OC(C)=O)C1C (stereo not given)
IC50 [µg/mL]: 6.5

Molecule: COC1CCOC2(C)Oc3c(C)c(O)c4c(O)c(c(N5CCN(Cc6c(C)cc(C)cc6C)CC5)c(O)c4c3C2=O)NC(=O)C(C)CCCC(C)C(O)C(C)C(O)C(C)C(OC(C)=O)C1C (stereo not given)
IC50 [µg/mL]: 8

Could you share which IC50 value was measured for COC1/C=C/OC2(C)Oc3c(C)c(O)c4c(O)c(c(N5CCN(Cc6c(C)cc(C)cc6C)CC5)c(O)c4c3C2=O)NC(=O)/C(C)=C\C=C\C(C)C(O)C(C)C(O)C(C)C(OC(C)=O)C1C (stereo not given) ?
0.3

----------
Test system: Rattus norvegicus
Assay Overview: Hypolipidemic activity was determined in male rats, and low-density lipoprotein level was determined at 50 mg/kg
Type: functional
# reported Activity; entries follow
Answer with a number only, understood to be in %.

Compound: COC1/C=C/OC2(C)Oc3c(C)c(O)c4c(O)c(c(C=NN5CCN(C6CCCC6)CC5)c(O)c4c3C2=O)NC(=O)/C(C)=C\C=C\C(C)C(O)C(C)C(O)C(C)C(OC(C)=O)C1C (stereo not given)
Activity [%]: -60

Find the measured Activity: item COC1/C=C/OC2(C)Oc3c(C)c(O)c4c(=O)c(c5oc6cc(C)ccc6nc-5c4c3C2=O)NC(=O)/C(C)=C\C=C\C(C)C(O)C(C)C(O)C(C)C(OC(C)=O)C1C (stereo not given) , target or system Rattus norvegicus.
-21

Find the measured Activity: item COC1/C=C/OC2(C)Oc3c(C)c(O)c4c(O)c(c(O)c(O)c4c3C2=O)NC(=O)/C(C)=C\C=C\C(C)C(O)C(C)C(O)C(C)C(OC(C)=O)C1C (stereo not given) , target or system Rattus norvegicus.
41

Find the measured Activity: item COC1/C=C/OC2(C)Oc3c(C)c(O)c4c(O)c(c(N5CCNCC5C(=O)O)c(O)c4c3C2=O)NC(=O)/C(C)=C\C=C\C(C)C(O)C(C)C(O)C(C)C(OC(C)=O)C1C (stereo not given) , target or system Rattus norvegicus.
53

Find the measured Activity: item COC1/C=C/OC2(C)Oc3c(C)c(O)c4c(O)c(c(C=NN5CCN(Cc6c(C)cc(C)cc6C)CC5)c(O)c4c3C2=O)NC(=O)/C(C)=C\C=C\C(C)C(O)C(C)C(O)C(C)C(OC(C)=O)C1C (stereo not given) , target or system Rattus norvegicus.
-39

----------
System: Staphylococcus aureus
Assay Overview: Antibacterial activity against Staphylococcus aureus 10B
Type: functional
Measured Quantity: MIC (µg/mL)
Answer with a number only, understood to be in µg/mL.

Field: example entries. Status: answers known.
Compound: COC1/C=C/OC2(C)Oc3c(C)c(O)c4c(O)c(c(C=NN5CCN(C6CCCC6)CC5)c(O)c4c3C2=O)NC(=O)/C(C)=C\C=C\C(C)C(O)C(C)C(O)C(C)C(OC(C)=O)C1C (stereo unspecified)
Measured Quantity: MIC
Reported Value: 0.01
//
Compound: COC1CCOC2(C)Oc3c(C)c(O)c4c(O)c(c(N5CCN(Cc6c(C)cc(C)cc6C)CC5)c(O)c4c3C2=O)NC(=O)C(C)CCCC(C)C(O)C(C)C(O)C(C)C(OC(C)=O)C1C (stereo unspecified)
Measured Quantity: MIC
Reported Value: 2
//
Compound: COC1/C=C/OC2(C)Oc3c(C)c(O)c4c(=O)c(c5oc6cc(C)ccc6nc-5c4c3C2=O)NC(=O)/C(C)=C\C=C\C(C)C(O)C(C)C(O)C(C)C(OC(C)=O)C1C (stereo unspecified)
Measured Quantity: MIC
Reported Value: 0.001

Could you share which MIC value was measured for COC1/C=C/OC2(C)Oc3c(C)c(O)c4c(O)c(c(C=NN5CCN(Cc6cccc7ccccc67)CC5)c(O)c4c3C2=O)NC(=O)/C(C)=C\C=C\C(C)C(O)C(C)C(O)C(C)C(OC(C)=O)C1C (stereo unspecified) ?
0.02

Could you share which MIC value was measured for `CO[C@H]1/C=C/O[C@@]2(C)Oc3c(C)c(O)c4c(O)c(c(/C=N/N5CCN(C)CC5)c(O)c4c3C2=O)NC(=O)/C(C)=C\C=C\[C@H](C)[C@H](O)[C@@H](C)[C@@H](O)[C@@H](C)[C@H](OC(C)=O)[C@@H]1C` ?
0.003

Could you share which MIC value was measured for COC1/C=C/OC2(C)Oc3c(C)c(O)c4c(O)c(c(N)c(O)c4c3C2=O)NC(=O)/C(C)=C\C=C\C(C)C(O)C(C)C(O)C(C)C(OC(C)=O)C1C (stereo unspecified) ?
0.003

Could you share which MIC value was measured for COC1/C=C/OC2(C)Oc3c(C)c(O)c4c(O)c(c(N5CCN(CC(C)C)CC5)c(O)c4c3C2=O)NC(=O)/C(C)=C\C=C\C(C)C(O)C(C)C(O)C(C)C(OC(C)=O)C1C (stereo unspecified) ?
0.005

Could you share which MIC value was measured for COC1/C=C/OC2(C)Oc3c(C)c(OC(=O)C(C)(C)C)c4c(c3C2=O)C(=O)C(N2CCN(Cc3c(C)cc(C)cc3C)CC2)=C(NC(=O)/C(C)=C\C=C\C(C)C(O)C(C)C(O)C(C)C(OC(C)=O)C1C)C4=O (stereo unspecified) ?
0.5

Could you share which MIC value was measured for `Cc1cc(C)c(CN2CCNCC2)c(C)c1` ?
128

Could you share which MIC value was measured for COC1/C=C/OC2(C)Oc3c(C)c(O)c4c(O)c(c(N5CCN(Cc6ccccc6)CC5)c(O)c4c3C2=O)NC(=O)/C(C)=C\C=C\C(C)C(O)C(C)C(O)C(C)C(OC(C)=O)C1C (stereo unspecified) ?
0.004
